- assay-procedure: NCI Yeast Anticancer Drug Screen. Data for the sgs1 mgt1 strain (AID 161);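 note: 0% = growth of cultures given vehicle only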
- condition-description: S. cerevisiae sgs1 mgt1 strain, at 50.0 µM, stronger effect = higher value
The panel holds about 79,000 compounds, 15% with a hit somewhere; the sample as a whole holds those more often.
Please use Criterion met whenever growth inhibition is not below 70%, and Criterion not met whenever it is.

compound	label-value
ClCc1ccccc1Cc1ccccc1	Criterion met
O=C(Nc1ccccc1-c1nn(CN2CCNCC2)c(=S)n(CN2CCNCC2)c1=O)C(F)(F)F	Criterion not met
CCC[n+]1ccc(/C=N\NC(N)=S)c2ccccc21	Criterion not met
Cc1ccc(NC(=O)CCC(=O)CC(=O)C(C)(C)C)cc1C	Criterion not met
COc1c2c(cc3c1c(=O)c1ccccc1n3C)OCO2	Criterion not met

Entry CNC(=O)OC1/C(C)=C\C(C)C(O)C(OC)CC(C)CC2=C(OC)C(=O)C=C(C2=O)N(C)C(=O)/C(C)=C/C=C\C1OC (stereo unspecified) : is its growth inhibition no less than 70%?
Criterion not met

Can COc1cc(O)c2c(c1)C(=O)C1=C(C2=O)[C@@H](C)OC(C)[C@H]1O (stereo partly specified) be said to have growth inhibition at or above 70%?
Criterion not met

Please indicate if the recorded growth inhibition for O=C1C(Br)=C(C2CCCCC2)C(=O)c2ccccc21 meets or exceeds 70%.
Criterion met

Confirm if growth inhibition reported for the compound O=[N+]([O-])c1cccc2c1[nH]c1c(-c3ccccc3)nccc12 is 70% or above.
Criterion met

Tell me whether growth inhibition is at least 70% here: CC1(C)CC(O)C(O)C1 (stereo unspecified)
Criterion not met

====

- assay-procedure: NCI Yeast Anticancer Drug Screen. Data for the cln2 rad14 strain (AID 165);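 note: 0% = growth equal to vehicle treated cultures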
- condition-description: S. cerevisiae cln2 rad14 strain, at 50.0 µM (retest, dose inferred, filed as 5.0), stronger effect = higher value
Compounds without any hit were thinned out: in the full panel of roughly 79,000, 15% have a hit.
What growth inhibition was measured for each of the following?
Numbers only, in %.

compound	endpoint-unit	growth inhibition
CN(C(=O)C(Cl)Cl)c1ccc(-c2csc(-c3ccccc3)n2)cc1	%	-3
O=c1nc(-c2ccccc2)cc(-c2ccccc2O)[nH]1	%	61
CC(C)=CCC/C(C)=C/COC(=O)Nc1ccccc1	%	-5
CCO/C=C1\N=C(C(O)(c2ccc(Cl)cc2)c2ccc(Cl)cc2)OC1=O	%	-1
Clc1ccc(C2NC(c3ccccc3)c3c(ccc4ccccc34)O2)cc1 (stereo unspecified)	%	15
CCCCCCC1CCC(CCCCCCCC(=O)N2CCN(C)CC2)C(C/C=C/CCCCCCCC(=O)N2CCN(C)CC2)C1CCCCC (stereo unspecified)	%	84
O=C(Oc1cccc2cccnc12)c1cccnc1	%	94
CC(C)(c1ccc(OC#N)cc1)c1ccc(OC#N)cc1	%	88
CCCCCCCCCCCC(=O)C(=O)c1ccc(O)cc1O	%	84
COc1cc(C(c2cc3c(cc2O)OCO3)N2CCN(C(c3cc(OC)c(OC)c(OC)c3)c3cc4c(cc3O)OCO4)CC2)cc(OC)c1OC (stereo unspecified)	%	93

I would be grateful if you could provide growth inhibition for each of the following entries.
1. CC(C)(CC(=O)NNc1ccccc1)C(=O)O
2. COc1cc(C=Nc2ccc(Cl)cc2)ccc1OC(=O)c1ccccc1
3. O=c1c(Cc2c[nH]c3ccccc23)coc2ccccc12

[82, 21, 92]

State recorded growth inhibition for all listed compounds.
1. O=C(CCCCCCCCCCc1ccccc1)c1ccc(Cl)cc1
2. COc1ccccc1C(=O)[O][Sn]([c]1ccccc1)([c]1ccccc1)[c]1ccccc1

61
99

Hi there! I need growth inhibition for each item below, if you can.
1. COC(=O)[C@@]12OC[C@]34[C@H]([C@@H](O)[C@@H]1O)[C@@]1(C)CC(=O)C(O)=C(C)[C@@H]1C[C@H]3OC(=O)[C@H](OC(=O)C(Cc1ccccc1)NC(=O)OC(C)(C)C)[C@@H]24 (stereo partly specified)
2. [O-][n+]1c2ccccc2nc2cc(Cl)ccc21
3. N#Cc1ccc(C2Oc3ccc(Cl)cc3C=C2[N+](=O)[O-])cc1 (stereo unspecified)

[78, -46, 98]

I need growth inhibition for every entry listed below, if you could help.
1. NC(=O)c1ccc[n+](CC(=O)Nc2ccc(Cl)cc2)c1
2. CC(=O)NC1C(=O)CC(c2ccccc2)N(C)C1c1ccccc1 (stereo unspecified)
3. O=C(N/C(=C\c1cc(Cl)ccc1Cl)c1nc2ccc(Cl)cc2[nH]1)c1ccccc1

[-6, 0, 84]

====

- assay-procedure: NCI Yeast Anticancer Drug Screen. Data for the sgs1 mgt1 strain (AID 161);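 note: 0% = growth of cultures given vehicle only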
- condition-description: S. cerevisiae sgs1 mgt1 strain, at 50.0 µM
This is part of a sample that, as a whole, favours compounds with a hit. Of some 79,000 tested, about 15% had one in any assay. Activity calls are given as the source filed them. No stated cut-off is given here; in the data, active means growth inhibition above about 70%; inactive means the rest.
Could you please pick one outcome from this set? t = active, f = inactive

molecule	label-value
O=C(Cc1ccccc1)NNc1nc(NNC(=O)c2ccncc2)nc(Nc2ccccc2)n1	f
O=NNc1ccc(Sc2ccc3ccccc3c2)cn1	f
CCN(CCO)CC1OC(OC)C2OC(C)(C)OC12 (stereo not drawn)	f

Shifting focus to the molecule that follows.
Each molecule tested received a call. Report the one for COc1ccc(C(CC(=O)c2ccc(C)cc2)Sc2ccccc2N)cc1 (stereo not drawn) .
f

====

- assay-procedure: NCI Yeast Anticancer Drug Screen. Data for the bub3 strain (AID 167)
- condition-description: S. cerevisiae bub3 mutant strain, at 5.0 µM (retest, dose inferred, filed as 0.5)
The panel holds about 79,000 compounds, 15% with a hit somewhere; the sample as a whole holds those more often. Calls of active or inactive are those of the source. Rule as the data show it: active = growth inhibition above about 70%; inactive = the rest.
# valid calls are active, inactive; nothing else

Some entries whose results are on file:
compound	label-value
CSc1ncnc2nn(C3OC(COC(=O)c4ccccc4)C(OC(=O)c4ccccc4)C3OC(=O)c3ccccc3)nc12 (stereo unspecified)	inactive
Cc1cc2c(=O)[nH]c(N)nc2nc1C	inactive
O=C(OCc1ccccc1CN1CCOCC1)c1cccc(Br)c1	inactive
Cc1cc(O)c(NCCN(C)C)c2c(=O)c3ccccc3sc12	inactive
CC(C)(c1ccc(OC#N)cc1)c1ccc(OC#N)cc1	inactive

Please turn your attention to the following entry.
Just curious, what result did O=[N+]([O-])c1c(I)ccc2ccccc12 get here?
inactive

====

- assay-procedure: NCI Yeast Anticancer Drug Screen. Data for the mec2-1 strain (AID 157)
- condition-description: S. cerevisiae mec2-1 strain, at 5.0 µM (retest, dose inferred, filed as 0.5)
- Experimental: Growth inhibition of yeast strains with defined genetic alterations is measured as a screen for potential anti-cancer activity. Selected strains with alterations in DNA damage repair or cell cycle control were exposed to compounds and growth inhibition was measured relative to vehicle treated controls. The strain used in this assay is mec2-1
This is part of a sample that, as a whole, favours compounds with a hit. Of some 79,000 tested, about 15% had one in any assay. Activity calls are given as the source filed them. Rule as the data show it: active = growth inhibition above about 70%; inactive = the rest. Where a SMILES comes first, the peptide text is derived from it. The star is where a group is joined. OSu = O=C1CCC(=O)N1O*; OBn = c1ccc(CO*)cc1; Bn = c1ccc(C*)cc1
// one of active, inactive, no free text

Examples from the recorded data:
molecule	label-value
Nc1ccc(-c2nc3ccccc3s2)cc1I	inactive
OC(CN1CCC(c2ccccc2)CC1)c1ccc(Br)cc1 (configuration not stated)	inactive
c1ccc([B-](c2ccccc2)(c2ccccc2)c2ccccc2)cc1	inactive
N=C(N)Sc1ccc([N+](=O)[O-])cc1Cl	inactive
N#CC(C(=O)C(=O)Nc1cccc(C(F)(F)F)c1)c1ccccc1 (configuration not stated)	inactive
COc1cc(C(=O)C=[N+]=[N-])c([N+](=O)[O-])c(OC)c1OC	inactive
CC(CC(C)[C@H]1CCC2[C@H]3C(CC(=O)[C@@]21C)[C@@]1(C)CCC(O)C[C@H]1C[C@@H]3O)C(=O)O (some centres not stated)	inactive
CC(C)CC(NC(=O)C(N)CCC(=O)OCc1ccccc1)C(=O)NC(COCc1ccccc1)C(=O)NC(Cc1ccccc1)C(=O)ON1C(=O)CCC1=O (configuration not stated) (H-E(OBn)LS(Bn)F-OSu; configuration not given here)	inactive
O=C1NN=C(c2ccc(Cl)cc2)CC1C1C(=O)N(c2ccccc2)N=C1c1ccccc1 (configuration not stated)	active
CC(=O)Nc1ccc(C(C)(C)c2ccc(C)cc2)cc1	inactive

Call for entry CCc1cccc(CC)c1Nc1nc2c(s1)C(=O)c1ccccc1C2=O :
active

What classification did ON1CCc2c([nH]c3ccccc23)C1c1ccc(Cl)cc1 (configuration not stated) end up with in this test?
inactive

Given CCc1cccc(C)c1NC(=O)C1=C(C)NC(C)=C(C(=O)Nc2c(C)cccc2CC)C1c1ccc2c(c1)OCO2 , state the outcome it received in this test.
inactive

====

- assay-procedure: NCI Yeast Anticancer Drug Screen. Data for the bub3 strain (AID 167)
- condition-description: S. cerevisiae bub3 mutant strain, at 50.0 µM (retest, dose inferred, filed as 5.0)
This is part of a sample that, as a whole, favours compounds with a hit. Of some 79,000 tested, about 15% had one in any assay. The source made the active and inactive calls. Cut-off read from the data, not from the text of the source: active = growth inhibition above about 70%; inactive = the rest.
Valid outcomes are listed here; reply with one: TRUE (active), FALSE (inactive)

Use the examples below as a reference point.
molecule	label-value
CS(=O)(=O)Nc1ccc(Nc2c3ccccc3nc3ccccc23)cc1	FALSE
O=C(O)/C=C/C(=O)c1ccccc1	TRUE
COc1ccc(-c2cc3ccccc3c(=O)n2Cc2ccccc2)cc1	FALSE
COc1ccc(C2SC(N)=Nc3c2c(C)nn3C(=O)c2ccccc2O)cc1OC (stereo unspecified)	FALSE
Clc1cc2n[nH]nc2c(Cl)c1Cl	FALSE

Now for another entry.
Field: outcome | Entry: O=C1/C(=C/c2ccc(Cl)cc2)CSC/C1=C\c1ccc(Cl)cc1
FALSE

From: PubChem BioAssay (NCI)
